# experimental system: human glucagon receptor (human) (UniProt P47871)
# Sequence (P47871 26-477): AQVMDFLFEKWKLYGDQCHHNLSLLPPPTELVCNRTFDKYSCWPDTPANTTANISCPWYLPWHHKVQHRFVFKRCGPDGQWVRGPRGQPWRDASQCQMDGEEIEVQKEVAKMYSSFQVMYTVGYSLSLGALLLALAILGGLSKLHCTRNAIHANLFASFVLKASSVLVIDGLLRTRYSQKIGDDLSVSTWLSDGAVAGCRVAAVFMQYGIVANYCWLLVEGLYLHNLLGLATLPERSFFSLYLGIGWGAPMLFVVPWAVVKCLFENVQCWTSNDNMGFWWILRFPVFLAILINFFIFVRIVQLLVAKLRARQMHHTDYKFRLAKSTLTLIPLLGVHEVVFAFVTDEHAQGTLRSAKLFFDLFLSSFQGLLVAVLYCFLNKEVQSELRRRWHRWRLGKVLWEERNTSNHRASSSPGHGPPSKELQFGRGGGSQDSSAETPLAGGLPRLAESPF
# experiment: cell-based or functional assay
Field: cAMP Rel EC50 (receptor-expressing HEK-293 cells, 1% HSA). Provide a value for each of the binders that follow.

Observe how each entry below is paired with its result.
binder	result
YXQGTXTSDXSIXLDKKAQXAFIEYLEEGGPSSGAPPPE (non-natural residues; acylated Lys; C-terminal amide; synthetic construct; SITE 2: note = 2-Aminoisobutyric Acid; SITE 6: note = alpha-methyl-2-fluoro-L-phenylalanine; SITE 10: note = 4-nitro-L-phenylalanine; SITE 13: note = alpha-methyl-leucine; SITE 17: note = Lysine is chemically modified through conjugation of the epsilon-amino group of the Lysine) [Example 495]	205 nM
YXQGTXTSDXSIXLDXKAQXXFIEYLLEGGPSSGEPPPEEG (synthetic construct; SITE 2: note = 2-Aminoisobutyric Acid; SITE 6: note = alpha-methyl-2-fluoro-L-phenylalanine; SITE 10: note = 3-(4-Pyridyl)-L-alanine; SITE 13: note = alpha-methyl-leucine; SITE 16: note = L-ornithine; SITE 17: note = Lysine is chemically modified through conjugation of the epsil) [Example 494]	333 nM

Continue with the next binder.
Exercise: Note down cAMP Rel EC50 (receptor-expressing HEK-293 cells, 1% HSA) recorded for YXQGTXTSDXXIXLDXKAQXNFIEYLIEGGPSSGEPPPEEG (synthetic construct; SITE 2: note = 2-Aminoisobutyric Acid; SITE 6: note = alpha-methyl-2-fluoro-L-phenylalanine; SITE 10: note = 3-(4-Pyridyl)-L-alanine; SITE 11: note = alpha-methyl-L-serine; SITE 13: note = alpha-methyl-leucine; SITE 16: note = L-ornithine; SITE 17: note = Lysine is chemically mo) [Example 482]
Key: 325 nM

Provenance of the data: patent US20240270821A1
